Hey, just so you know, these numbers are from patent US20200113852A1.

Kindly state Cmax for each of the entries shown.
- PROCEDURE_TEXT: Phase I clinical trial GBM, pharmacokinetics
- Type: in vivo, human
- CONDITION_PARAMETERS: human; 6.8 mg/kg IV 2×/week; geometric mean±SD, plasma; read-out: Cmax
Give bare numbers, in ng/mL.

{"columns": ["COMPOUND", "UNIT_STRING", "Cmax"],
 "data": [
  ["NC(=O)c1ccc(I)c([N+](=O)[O-])c1 [Iniparib, 4-iodo-3-nitrobenzamide]", "ng/mL", 1020]
]}

Attention now shifts to the item below.
**Query** Form field: reported Cmax of NC(=O)c1ccc(I)c(N)c1 [I-ABM, 4-iodo-3 aminobenzamide]
**Result** 8.4
